Reference for the values: ChEMBL document CHEMBL2424515

# Target entity: UniProt O15244
# Protocol notes: Cellular uptake in human HEK293 cells assessed as human OCT2-mediated drug transport at 2.5 uM after 4 mins by LC-MS/MS analysis
# Type: ADME, cell-based
# Condition info: hek293, 4 min
Drug uptake strictly less than 20 pmol/mg = true (1). Otherwise false (0).

Look over these answered cases.
Compound	Discrete label
C[N+]1(C)[C@@H]2C[C@@H](OC(=O)C(O)(c3cccs3)c3cccs3)C[C@H]1[C@@H]1O[C@@H]12 [TIOTROPIUM]	false (0)
N#Cc1ccc(OC2CCNC2)c(-c2cc(C(N)=O)c(NC(N)=O)s2)c1 (racemic)	false (0)
CC[N+](C)(CC)CCOC(=O)C(O)(c1ccccc1)C1CCCCC1 (stereo not given) [OXYPHENONIUM]	false (0)
NC(=O)Nc1sc(-c2cccc(OC3CCNC3)c2)cc1C(N)=O (racemic)	false (0)
CC(C)(C)NCC(O)c1ccc(O)c(CO)c1 (stereo not given) [ALBUTEROL]	false (0)
NC(=O)Nc1sc(-c2ccccc2OC2CCNCC2)cc1C(N)=O	false (0)
O=C(NCCNCC(O)COc1ccc(O)cc1)N1CCOCC1 (stereo not given) [XAMOTEROL]	true (1)
CCC(NC(C)C)C(O)c1ccc(O)c2[nH]c(=O)ccc12 (stereo not given) [PROCATEROL]	true (1)

Prompt: Please indicate whether the reported Drug uptake of NCCCOc1ccccc1-c1nc(C(N)=O)c(NC(N)=O)s1 is strictly below 20 pmol/mg.
Completion: false (0)

Prompt: Threshold test, Drug uptake < 20 pmol/mg: NC(=O)Nc1sc(-c2ccccc2OC2CNC2)cc1C(N)=O
Completion: false (0)

###

Recorded uptake ratio at 4 min, 2.5 µM values for a group of molecules are listed next.
# Target entity: OCT2 (SLC22A2) (Homo sapiens, UniProt O15244)
# Sequence (O15244 whole entry): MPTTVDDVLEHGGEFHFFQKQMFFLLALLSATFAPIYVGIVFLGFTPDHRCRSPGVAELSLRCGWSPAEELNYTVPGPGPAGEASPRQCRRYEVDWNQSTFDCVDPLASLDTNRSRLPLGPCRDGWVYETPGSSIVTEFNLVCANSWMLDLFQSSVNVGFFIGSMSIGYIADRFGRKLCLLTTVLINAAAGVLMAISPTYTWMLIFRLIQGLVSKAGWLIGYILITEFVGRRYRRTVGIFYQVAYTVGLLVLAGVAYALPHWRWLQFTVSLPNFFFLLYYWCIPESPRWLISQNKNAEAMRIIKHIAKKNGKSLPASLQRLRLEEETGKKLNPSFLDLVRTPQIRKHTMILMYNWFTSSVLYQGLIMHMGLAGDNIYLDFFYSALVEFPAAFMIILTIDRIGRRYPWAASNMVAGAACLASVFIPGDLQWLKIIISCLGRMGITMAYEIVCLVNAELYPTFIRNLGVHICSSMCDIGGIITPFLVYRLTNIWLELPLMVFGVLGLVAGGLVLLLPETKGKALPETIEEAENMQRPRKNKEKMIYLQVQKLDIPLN
# Protocol notes: Cellular uptake in human HEK293 cells assessed as human OCT2-mediated drug transport at 2.5 uM after 4 mins by LC-MS/MS analysis relative to passive uptake
# Type: ADME, cell-based
# Condition info: HEK293 cells expressing human OCT2, read-out: FC
Response field accepts a number only; no unit should be typed.

Molecule	Target entity	Endpoint value
NCCCOc1ccccc1-c1nc(C(N)=O)c(NC(N)=O)s1	OCT2 (SLC22A2) (Homo sapiens, UniProt O15244)	1.5
NC(=O)Nc1sc(-c2ccccc2O[C@@H]2CCNC2)cc1C(N)=O	OCT2 (SLC22A2) (Homo sapiens, UniProt O15244)	1.1
CNS(=O)(=O)Cc1ccc2[nH]cc(CCN(C)C)c2c1	OCT2 (SLC22A2) (Homo sapiens, UniProt O15244)	3.3
NC(=O)Nc1sc(-c2ccccc2OC2CNC2)cc1C(N)=O	OCT2 (SLC22A2) (Homo sapiens, UniProt O15244)	2.2
C[N+]1(C)[C@@H]2C[C@@H](OC(=O)C(O)(c3cccs3)c3cccs3)C[C@H]1[C@@H]1O[C@@H]12	OCT2 (SLC22A2) (Homo sapiens, UniProt O15244)	39

Please look at the following molecule next.
Record CN/C(=N/CCSCc1nc[nH]c1C)NC#N , field uptake ratio at 4 min, 2.5 µM: 15

###

# Target entity: UniProt O15245
# Sequence (O15245 whole entry): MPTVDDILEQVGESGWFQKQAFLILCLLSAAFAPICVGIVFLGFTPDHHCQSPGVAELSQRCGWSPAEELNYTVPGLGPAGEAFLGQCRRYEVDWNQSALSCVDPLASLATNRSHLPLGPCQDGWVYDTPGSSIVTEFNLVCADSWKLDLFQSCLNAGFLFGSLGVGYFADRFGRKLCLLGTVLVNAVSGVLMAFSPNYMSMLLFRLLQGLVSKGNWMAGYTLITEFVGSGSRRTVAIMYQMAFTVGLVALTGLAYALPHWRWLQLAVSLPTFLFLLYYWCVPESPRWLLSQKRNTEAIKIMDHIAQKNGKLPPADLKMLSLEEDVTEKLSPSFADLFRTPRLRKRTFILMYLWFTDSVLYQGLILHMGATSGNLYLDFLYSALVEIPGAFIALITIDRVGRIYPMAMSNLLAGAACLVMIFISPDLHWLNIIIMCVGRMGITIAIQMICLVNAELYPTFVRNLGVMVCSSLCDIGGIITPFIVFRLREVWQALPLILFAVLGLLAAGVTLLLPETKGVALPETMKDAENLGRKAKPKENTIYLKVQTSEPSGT
# Protocol notes: Cellular uptake in human HEK293 cells assessed as human OCT1-mediated drug transport at 2.5 uM after 4 mins by LC-MS/MS analysis relative to passive uptake
# Type: ADME, cell-based
# Condition info: HEK293 cells expressing human OCT1, read-out: FC
Labelling field: enter Condition met if recorded uptake ratio at 4 min, 2.5 µM is less than 20. Enter Condition not met if it equals or exceeds that cut-off.

Molecule	Discrete label
C[N+]1(C)CCC(Oc2ccccc2-c2cc(C(N)=O)c(NC(N)=O)s2)C1 (racemic)	Condition not met
NC(=O)Nc1sc(-c2ccc(OC3CCNC3)cc2)cc1C(N)=O (racemic)	Condition not met
NC(=O)Nc1sc(-c2cccc(OC3CCNC3)c2)cc1C(N)=O (racemic)	Condition not met
NC(=O)Nc1sc(-c2ccccc2OC2CCNCC2)cc1C(N)=O	Condition met
NC(=O)Nc1sc(-c2ccccc2OC2CNC2)cc1C(N)=O	Condition met

Prompt: Item CCC(NC(C)C)C(O)c1ccc(O)c2[nH]c(=O)ccc12 (stereo not given) : uptake ratio at 4 min, 2.5 µM beneath 20, strictly?
Completion: Condition met

Prompt: I wonder whether NC(=O)Nc1sc(-c2ccccc2O[C@@H]2CCNC2)cc1C(N)=O has uptake ratio at 4 min, 2.5 µM below 20. Can you tell?
Completion: Condition met

###

# Target entity: Solute carrier family 22 member 1 (Homo sapiens, UniProt O15245)
# Sequence (O15245 whole entry): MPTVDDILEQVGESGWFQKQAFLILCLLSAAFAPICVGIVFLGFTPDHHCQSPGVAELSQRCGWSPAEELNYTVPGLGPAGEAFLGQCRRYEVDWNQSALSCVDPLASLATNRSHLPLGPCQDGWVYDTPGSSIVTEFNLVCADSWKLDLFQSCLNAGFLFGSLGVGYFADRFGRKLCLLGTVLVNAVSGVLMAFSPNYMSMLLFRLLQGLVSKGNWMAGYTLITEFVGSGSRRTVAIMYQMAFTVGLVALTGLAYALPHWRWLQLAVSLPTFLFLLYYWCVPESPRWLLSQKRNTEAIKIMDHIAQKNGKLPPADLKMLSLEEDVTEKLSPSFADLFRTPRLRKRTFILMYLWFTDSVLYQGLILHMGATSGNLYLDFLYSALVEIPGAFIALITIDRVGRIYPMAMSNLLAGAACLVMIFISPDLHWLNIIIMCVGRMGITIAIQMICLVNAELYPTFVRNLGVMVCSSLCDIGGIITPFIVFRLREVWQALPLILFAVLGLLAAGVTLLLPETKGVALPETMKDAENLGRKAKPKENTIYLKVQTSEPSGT
# Protocol notes: Cellular uptake in human HEK293 cells assessed as human OCT1-mediated drug transport at 2.5 uM after 4 mins by LC-MS/MS analysis
# Type: ADME, cell-based
# Condition info: hek293, 4 min
Listed compounds paired with reported Drug uptake
A number alone suffices; assume pmol/mg.

Examples from the recorded data:
C[N+]1(C)[C@@H]2C[C@@H](OC(=O)C(O)(c3cccs3)c3cccs3)C[C@H]1[C@@H]1O[C@@H]12 820
NC(=O)Nc1sc(-c2ccccc2O[C@@H]2CCNC2)cc1C(N)=O 586
NC(=O)Nc1sc(-c2ccccc2OC2CCNCC2)cc1C(N)=O 821
NCCOc1ccccc1-c1nc(C(N)=O)c(NC(N)=O)s1 796

Pending compound:
Drug uptake measured on CNC(=C[N+](=O)[O-])NCCSCc1ccc(CN(C)C)o1 = 600
